molecular target: σ2 receptor (Rattus norvegicus, UniProt Q5U3Y7); construct: The thawed rat liver membrane preparation; tissue Harlan-Winkelmann, Borchen, Germany; host or cells: rat liver membrane preparation; assay: σ2 receptor radioligand binding assay ([3H]DTG with excess (+)-pentazocine, rat liver membranes); details: read-out: σ2 affinity K i±SEM (n=3); rat liver membranes, [3H]DTG + (+)-pentazocine
Sequence (Q5U3Y7 whole entry): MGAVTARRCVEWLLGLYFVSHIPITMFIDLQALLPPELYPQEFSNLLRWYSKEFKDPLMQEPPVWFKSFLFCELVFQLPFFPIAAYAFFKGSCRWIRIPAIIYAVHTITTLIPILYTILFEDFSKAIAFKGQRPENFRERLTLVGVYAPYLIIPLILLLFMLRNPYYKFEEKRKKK
reported.metric: Ki
Number first, unit second.

Checklist item: Ki tested on σ2 receptor (Rattus norvegicus, UniProt Q5U3Y7), entry CN1CCC(CCN2CCN(c3ccccc3)CC2)CC1c1ccccc1 (stereo not drawn) [22a] , value?
1600 nM

Checklist item: Ki tested on σ2 receptor (Rattus norvegicus, UniProt Q5U3Y7), entry CN(CCC1CCN(C)C(c2ccccc2)C1)Cc1ccccc1 (stereo not drawn) [21a] , value?
77 nM

Continue with the next compound.
Checklist item: Ki tested on σ2 receptor (Rattus norvegicus, UniProt Q5U3Y7), entry c1ccc(CNCCC2CCNC(c3ccccc3)C2)cc1 (stereo not drawn) , value?
372 nM

---

biological target: σ1 receptor (Cavia porcellus); construct: The thawed membrane preparation of guinea pig brain cortex; tissue Harlan-Winkelmann, Borchen, Germany; host or cells: guinea pig brain (cortex) membrane homogenate; experiment: σ1 receptor radioligand binding assay ([3H]-(+)-pentazocine, guinea pig brain homogenate); conditions: read-out: σ1 affinity K i±SEM (n=3); guinea pig brain, [3H]-(+)-pentazocine; piperidines tested as cis/trans mixtures
Here the recorded pKi is given for each entry.
Scale explanation: pKi corresponds to minus log10 of a concentration expressed in moles per litre.

# count of solved cases: 3
Checklist item: pKi tested on σ1 receptor (Cavia porcellus), entry c1ccc(CNCCC2CCNC(c3ccccc3)C2)cc1 (stereo not shown) , value?
6.78

Checklist item: pKi tested on σ1 receptor (Cavia porcellus), entry CN(CCC1CCN(C)C(c2ccccc2)C1)Cc1ccccc1 (stereo not shown) [21a] , value?
7.72

Checklist item: pKi tested on σ1 receptor (Cavia porcellus), entry CN1CCC(CCNCc2ccccc2)CC1c1ccccc1 (stereo not shown) [18a] , value?
8.10

Continue with the next compound.
Checklist item: pKi tested on σ1 receptor (Cavia porcellus), entry CN1CCC(CCN2CCN(c3ccccc3)CC2)CC1c1ccccc1 (stereo not shown) [22a] , value?
7.57

---

test system: human non-small cell lung cancer cell line A427; assay: A427 tumor cell proliferation (confluence) assay, IncuCyte S3 live cell imaging; settings: Homo sapiens, A-427, 120 h, read-out: Inhibition of cell confluency IC50 ± SD, A427 cells, last time point (approx. 5 d), n = 3
reported.metric: pIC50
Scale explanation: pIC50 corresponds to minus log10 of a concentration expressed in moles per litre.

// query pIC50 value for entry c1ccc(CNCCC2CCNC(c3ccccc3)C2)cc1 (stereo not shown) [4a]
4.74

---

target: σ1 receptor (Cavia porcellus, UniProt Q60492); construct: The thawed membrane preparation of guinea pig brain cortex; tissue Harlan-Winkelmann, Borchen, Germany; host or cells: guinea pig brain (cortex) membrane homogenate; test: σ1 receptor radioligand binding assay ([3H]-(+)-pentazocine, guinea pig brain homogenate); conditions: Ki(σ2)/Ki(σ1)
Sequence (Q60492 whole entry): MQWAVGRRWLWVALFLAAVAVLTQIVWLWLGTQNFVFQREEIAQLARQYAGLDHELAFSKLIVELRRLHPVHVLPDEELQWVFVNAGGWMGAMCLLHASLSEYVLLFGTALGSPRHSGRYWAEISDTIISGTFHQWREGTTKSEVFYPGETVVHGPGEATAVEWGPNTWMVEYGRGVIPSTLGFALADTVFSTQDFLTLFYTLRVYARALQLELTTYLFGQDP
reported.metric: σ1 : σ2 selectivity
# print the numeric value only

# count of solved cases: 3
// query σ1 : σ2 selectivity value for entry CN1CCC(CCNCc2ccccc2)CC1c1ccccc1 (centres unmarked) [18a]
61

// query σ1 : σ2 selectivity value for entry Cc1ccc(S(=O)(=O)N2CCC(CCNCc3ccccc3)CC2c2ccccc2)cc1 (centres unmarked) [13a]
13

// query σ1 : σ2 selectivity value for entry CN1CCC(CCNCC2CCCCC2)CC1c1ccccc1 (centres unmarked) [20a]
18

Next:
// query σ1 : σ2 selectivity value for entry CCN1CCC(CCNCc2ccccc2)CC1c1ccccc1 (centres unmarked) [18b]
1

// query σ1 : σ2 selectivity value for entry CN1CCC(CCN2CCN(c3ccccc3)CC2)CC1c1ccccc1 (centres unmarked) [22a]
59

// query σ1 : σ2 selectivity value for entry Cc1ccc(S(=O)(=O)N2CCC(CCNCCCc3ccccc3)CC2c2ccccc2)cc1 (centres unmarked) [13b]
2

// query σ1 : σ2 selectivity value for entry CN(CCC1CCN(C)C(c2ccccc2)C1)Cc1ccccc1 (centres unmarked) [21a]
4
